Numbers sourced from paper PMC7662226.

# subjectOfTest: UniProt:P28223
# measurementProtocol: Fluorometric Imaging Plate Reader (FLIPR) assay, 5-HT2AR
# setupConditions: functional activity, calcium flux, human 5-HT2AR expressed by CHO-K1 cells; NA: no activity
Each entry below carries its reported IC50.

- compound: "CS(=O)(=O)c1ccc(OCC2CC2)c(C(=O)N2CCN(CCCc3c[nH]c4ccc(C#N)cc34)CC2)c1 [Compound 13d]"
  subjectOfTest: "UniProt:P28223"
  resultUnits: "nM"
  valuePrefix: "="
  IC50: 887
- compound: "N#Cc1ccc2[nH]cc(CCCN3CCN(C(=O)c4cc(S(=O)(=O)NCC5CC5)ccc4OCC4COC4)CC3)c2c1 [Compound 13n]"
  subjectOfTest: "UniProt:P28223"
  resultUnits: "nM"
  valuePrefix: ">"
  IC50: 5000
- compound: "CC(Oc1ccc(S(C)(=O)=O)cc1C(=O)N1CCN(CCCc2c[nH]c3ccc(C#N)cc23)CC1)C(F)(F)F (centres unmarked) [Compound 13c]"
  subjectOfTest: "UniProt:P28223"
  resultUnits: "nM"
  valuePrefix: "="
  IC50: 1140
- compound: "CC(C)COc1ccc(S(=O)(=O)NCC2CC2)cc1C(=O)N1CCN(CCCc2c[nH]c3ccc(C#N)cc23)CC1 [Compound 13m]"
  subjectOfTest: "UniProt:P28223"
  resultUnits: "nM"
  valuePrefix: "="
  IC50: 1530
- compound: "CS(=O)(=O)c1ccc(F)c(C(=O)N2CCN(CCCc3c[nH]c4ccc(C#N)cc34)CC2)c1 [Compound 13a]"
  subjectOfTest: "UniProt:P28223"
  resultUnits: "nM"
  valuePrefix: ">"
  IC50: 5000

----------
# subjectOfTest: human 5-HT2AR (Homo sapiens)
# Sequence (P28223 whole entry): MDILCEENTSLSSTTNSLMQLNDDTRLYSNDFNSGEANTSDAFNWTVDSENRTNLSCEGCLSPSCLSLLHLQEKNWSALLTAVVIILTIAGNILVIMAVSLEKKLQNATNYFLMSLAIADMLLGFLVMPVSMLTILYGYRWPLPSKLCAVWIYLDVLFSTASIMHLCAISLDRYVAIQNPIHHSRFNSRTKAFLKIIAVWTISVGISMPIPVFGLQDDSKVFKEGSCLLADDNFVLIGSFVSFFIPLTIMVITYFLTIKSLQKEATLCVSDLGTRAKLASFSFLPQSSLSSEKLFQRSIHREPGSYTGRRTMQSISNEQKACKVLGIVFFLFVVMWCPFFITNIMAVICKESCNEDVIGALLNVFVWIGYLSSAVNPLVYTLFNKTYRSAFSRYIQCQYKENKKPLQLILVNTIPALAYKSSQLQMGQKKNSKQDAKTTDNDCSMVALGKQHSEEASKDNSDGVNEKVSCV
# measurementProtocol: Fluorometric Imaging Plate Reader (FLIPR) assay, 5-HT2AR
# setupConditions: functional activity, calcium flux, human 5-HT2AR expressed by CHO-K1 cells; NA: no activity
measuredEndpoint: IC50

- compound: "N#Cc1ccc2[nH]cc(CCCN3CCN(C(=O)c4cc(S(=O)(=O)NCC5CC5)ccc4OCC4CC4)CC3)c2c1 [Compound 13g]"
  subjectOfTest: "human 5-HT2AR (Homo sapiens)"
  measuredEndpoint: "IC50"
  reportedMeasurement: "2280 nM"
- compound: "CCOc1ccc(S(=O)(=O)NCC2CC2)cc1C(=O)N1CCN(CCCc2c[nH]c3ccc(C#N)cc23)CC1 [Compound 13p]"
  subjectOfTest: "human 5-HT2AR (Homo sapiens)"
  measuredEndpoint: "IC50"
  reportedMeasurement: "4730 nM"
- compound: "CCOc1ccc(S(=O)(=O)NC)cc1C(=O)N1CCN(CCCc2c[nH]c3ccc(C#N)cc23)CC1 [Compound 13k]"
  subjectOfTest: "human 5-HT2AR (Homo sapiens)"
  measuredEndpoint: "IC50"
  reportedMeasurement: "1780 nM"
- compound: "CCS(=O)(=O)c1ccc(OCC2CC2)c(C(=O)N2CCN(CCCc3c[nH]c4ccc(C#N)cc34)CC2)c1 [Compound 13e]"
  subjectOfTest: "human 5-HT2AR (Homo sapiens)"
  measuredEndpoint: "IC50"
  reportedMeasurement: "1290 nM"
- compound: "CNS(=O)(=O)c1ccc(OCC2COC2)c(C(=O)N2CCN(CCCc3c[nH]c4ccc(C#N)cc34)CC2)c1 [Compound 13i]"
  subjectOfTest: "human 5-HT2AR (Homo sapiens)"
  measuredEndpoint: "IC50"
  reportedMeasurement: "4190 nM"
- compound: "CNS(=O)(=O)c1ccc(OCC2CC2)c(C(=O)N2CCN(CCCc3c[nH]c4ccc(C#N)cc34)CC2)c1 [Compound 13f]"
  subjectOfTest: "human 5-HT2AR (Homo sapiens)"
  measuredEndpoint: "IC50"
  reportedMeasurement: "1100 nM"
- compound: "CNS(=O)(=O)c1ccc(OCC(C)C)c(C(=O)N2CCN(CCCc3c[nH]c4ccc(C#N)cc34)CC2)c1 [Compound 13h]"
  subjectOfTest: "human 5-HT2AR (Homo sapiens)"
  measuredEndpoint: "IC50"
  reportedMeasurement: "567 nM"
